Where do these numbers come from? They come from patent US20230235012A1.

target: T1, human CD28, full-length, expressed on transfected Expi293 cells (human, UniProt P10747 19-220); test: flow cytometry, 100 nM, Expi293 cells with human CD28
T1 construct: whole, on cells
property_name: MFI ratio to WT (ΔWT) (fold)
Answer with a number only, understood to be in fold.

Before answering, review these 3 worked examples.
>  <binder>
variant ICOSL IgV-Fc fusion N52Q/N57S/Q100A (Fc fusion) DTQEKEVRAMVGSDVELSCACPEGSRFDLNDVYVYWQTSESKTVVTYHIPQQSSLESVDSRYRNRALMSPAGMLRGDFSLRLFNVTPQDEQKFHCLVLSASLGFQEVLSVEVTLHVAANFSVGSGGGGSEPKSSDKTHTCPPCPAPEAEGAPSVFLFPPKPKDTLMISRTPEVTCVVVDVSHEDPEVKFNWYVDGVEVHNAKTKPREEQYNSTYRVVSVLTVLHQDWLNGKEYKCKVSNKALPAPIEKTISKAKGQPREPQVYTLPPSREEMTKNQVSLTCLVKGFYPSDIAVEWESNGQPENNYKTTPPVLDSDGSFFLYSKLTVDKSRWQQGNVFSCSVMHEALHNHYTQKSLSLSPG

>  <measurement_unit>
fold

>  <MFI ratio to WT (ΔWT)>
4.1

$$$$
>  <binder>
variant ICOSL IgV-Fc fusion N57Q/Q100P (Fc fusion) DTQEKEVRAMVGSDVELSCACPEGSRFDLNDVYVYWQTSESKTVVTYHIPQNSSLEQVDSRYRNRALMSPAGMLRGDFSLRLFNVTPQDEQKFHCLVLSPSLGFQEVLSVEVTLHVAANFSVGSGGGGSEPKSSDKTHTCPPCPAPEAEGAPSVFLFPPKPKDTLMISRTPEVTCVVVDVSHEDPEVKFNWYVDGVEVHNAKTKPREEQYNSTYRVVSVLTVLHQDWLNGKEYKCKVSNKALPAPIEKTISKAKGQPREPQVYTLPPSREEMTKNQVSLTCLVKGFYPSDIAVEWESNGQPENNYKTTPPVLDSDGSFFLYSKLTVDKSRWQQGNVFSCSVMHEALHNHYTQKSLSLSPG

>  <measurement_unit>
fold

>  <MFI ratio to WT (ΔWT)>
0.7

$$$$
>  <binder>
variant ICOSL IgV-Fc fusion N52T/N57H/Q100A (Fc fusion) DTQEKEVRAMVGSDVELSCACPEGSRFDLNDVYVYWQTSESKTVVTYHIPQTSSLEHVDSRYRNRALMSPAGMLRGDFSLRLFNVTPQDEQKFHCLVLSASLGFQEVLSVEVTLHVAANFSVGSGGGGSEPKSSDKTHTCPPCPAPEAEGAPSVFLFPPKPKDTLMISRTPEVTCVVVDVSHEDPEVKFNWYVDGVEVHNAKTKPREEQYNSTYRVVSVLTVLHQDWLNGKEYKCKVSNKALPAPIEKTISKAKGQPREPQVYTLPPSREEMTKNQVSLTCLVKGFYPSDIAVEWESNGQPENNYKTTPPVLDSDGSFFLYSKLTVDKSRWQQGNVFSCSVMHEALHNHYTQKSLSLSPG

>  <measurement_unit>
fold

>  <MFI ratio to WT (ΔWT)>
5

$$$$

# lookup: MFI ratio to WT (ΔWT) of variant ICOSL IgV-Fc fusion N52S/N57L/Q100S (Fc fusion) DTQEKEVRAMVGSDVELSCACPEGSRFDLNDVYVYWQTSESKTVVTYHIPQSSSLELVDSRYRNRALMSPAGMLRGDFSLRLFNVTPQDEQKFHCLVLSSSLGFQEVLSVEVTLHVAANFSVGSGGGGSEPKSSDKTHTCPPCPAPEAEGAPSVFLFPPKPKDTLMISRTPEVTCVVVDVSHEDPEVKFNWYVDGVEVHNAKTKPREEQYNSTYRVVSVLTVLHQDWLNGKEYKCKVSNKALPAPIEKTISKAKGQPREPQVYTLPPSREEMTKNQVSLTCLVKGFYPSDIAVEWESNGQPENNYKTTPPVLDSDGSFFLYSKLTVDKSRWQQGNVFSCSVMHEALHNHYTQKSLSLSPG 4.8

Which MFI ratio to WT (ΔWT) value belongs to variant ICOSL IgV-Fc fusion N52M/N57H/Q100S (Fc fusion) DTQEKEVRAMVGSDVELSCACPEGSRFDLNDVYVYWQTSESKTVVTYHIPQMSSLEHVDSRYRNRALMSPAGMLRGDFSLRLFNVTPQDEQKFHCLVLSSSLGFQEVLSVEVTLHVAANFSVGSGGGGSEPKSSDKTHTCPPCPAPEAEGAPSVFLFPPKPKDTLMISRTPEVTCVVVDVSHEDPEVKFNWYVDGVEVHNAKTKPREEQYNSTYRVVSVLTVLHQDWLNGKEYKCKVSNKALPAPIEKTISKAKGQPREPQVYTLPPSREEMTKNQVSLTCLVKGFYPSDIAVEWESNGQPENNYKTTPPVLDSDGSFFLYSKLTVDKSRWQQGNVFSCSVMHEALHNHYTQKSLSLSPG ? 5.1

For the binder shown here, variant ICOSL IgV-Fc fusion N52C/N57E/Q100S (Fc fusion) DTQEKEVRAMVGSDVELSCACPEGSRFDLNDVYVYWQTSESKTVVTYHIPQCSSLEEVDSRYRNRALMSPAGMLRGDFSLRLFNVTPQDEQKFHCLVLSSSLGFQEVLSVEVTLHVAANFSVGSGGGGSEPKSSDKTHTCPPCPAPEAEGAPSVFLFPPKPKDTLMISRTPEVTCVVVDVSHEDPEVKFNWYVDGVEVHNAKTKPREEQYNSTYRVVSVLTVLHQDWLNGKEYKCKVSNKALPAPIEKTISKAKGQPREPQVYTLPPSREEMTKNQVSLTCLVKGFYPSDIAVEWESNGQPENNYKTTPPVLDSDGSFFLYSKLTVDKSRWQQGNVFSCSVMHEALHNHYTQKSLSLSPG , give the reported MFI ratio to WT (ΔWT). 0.6

// returns reported MFI ratio to WT (ΔWT) for input variant ICOSL IgV-Fc fusion N52G/N57V/Q100G (Fc fusion) DTQEKEVRAMVGSDVELSCACPEGSRFDLNDVYVYWQTSESKTVVTYHIPQGSSLEVVDSRYRNRALMSPAGMLRGDFSLRLFNVTPQDEQKFHCLVLSGSLGFQEVLSVEVTLHVAANFSVGSGGGGSEPKSSDKTHTCPPCPAPEAEGAPSVFLFPPKPKDTLMISRTPEVTCVVVDVSHEDPEVKFNWYVDGVEVHNAKTKPREEQYNSTYRVVSVLTVLHQDWLNGKEYKCKVSNKALPAPIEKTISKAKGQPREPQVYTLPPSREEMTKNQVSLTCLVKGFYPSDIAVEWESNGQPENNYKTTPPVLDSDGSFFLYSKLTVDKSRWQQGNVFSCSVMHEALHNHYTQKSLSLSPG 1.1
